Values compiled from paper PMC12489474.

# measuredTarget: RARalpha dAB dF;RXRalpha dAB (Mus musculus / Homo sapiens (Methods …, UniProt P11416;P19793 82-421;126-462, |))
# Sequence (P11416 82-421, chain 1 of 2): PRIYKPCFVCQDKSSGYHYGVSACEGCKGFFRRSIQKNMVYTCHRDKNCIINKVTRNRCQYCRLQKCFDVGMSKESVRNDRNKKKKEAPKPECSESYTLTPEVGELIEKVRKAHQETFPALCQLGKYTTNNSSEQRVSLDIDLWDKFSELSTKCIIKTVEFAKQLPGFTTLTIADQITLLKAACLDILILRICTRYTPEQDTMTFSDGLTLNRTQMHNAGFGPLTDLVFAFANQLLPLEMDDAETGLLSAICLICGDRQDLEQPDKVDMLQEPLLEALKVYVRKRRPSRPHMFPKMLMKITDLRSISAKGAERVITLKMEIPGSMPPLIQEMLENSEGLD
# Sequence (P19793 126-462, chain 2 of 2): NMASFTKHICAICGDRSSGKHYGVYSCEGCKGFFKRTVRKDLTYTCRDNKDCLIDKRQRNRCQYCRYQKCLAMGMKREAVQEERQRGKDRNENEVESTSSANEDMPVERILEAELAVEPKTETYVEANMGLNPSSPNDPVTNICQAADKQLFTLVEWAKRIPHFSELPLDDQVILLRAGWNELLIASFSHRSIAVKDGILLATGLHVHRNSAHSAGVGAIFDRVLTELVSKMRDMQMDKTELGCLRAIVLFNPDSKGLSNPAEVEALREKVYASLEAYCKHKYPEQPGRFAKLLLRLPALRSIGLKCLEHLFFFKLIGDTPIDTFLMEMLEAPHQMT
# experimentSummary: fluorescence anisotropy; BMS493; Fluorescence anisotropy: 20 mM Tris-HCl pH 7.5, 75 mM NaCl, 75 mM KCl, 2 mM CHAPS, 4 mM MgCl2, 2 mM TCEP, 10% glycerol, 0.5 nM Cy5-DNA, 4 uM ligands, 294 K
# particulars: protein: recombinant;recombinant; tags: N-terminal His6 (pET15b); copies: 1;1; label: Cy5 on forward strand; 5' overhang 1 nt at both ends (so in the source)
observable: pKd
Answer as the number alone; pKd is minus log10 of concentration in mol/L.

Which pKd is reported for this binder? IR0 Trim16 Cy5 (dsDNA) DNA 1: GCAGGGTCATGACCCCGC DNA 2: CGCGGGGTCATGACCCTG
7.54
